Entry source: the RNAGym collection of RNA variant scans (doi:10.1073/pnas.2313332121)

B1: TPR 5TU (parent)
chain: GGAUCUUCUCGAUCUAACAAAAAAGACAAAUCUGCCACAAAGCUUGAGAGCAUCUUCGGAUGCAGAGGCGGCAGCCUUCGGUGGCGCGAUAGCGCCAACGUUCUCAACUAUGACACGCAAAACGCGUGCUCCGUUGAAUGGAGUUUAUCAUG

Variants of: B1
Procedure Summary: polymerase ribozyme fitness, log enrichment relative to wild type (log ratio); higher = more active; in vitro selection for triplet polymerase activity
Fewer inactive variants are shown than the library holds.
Measured polymerase ribozyme fitness (log ratio) accompanies every entry in the list below.

| Alteration | Comparator | polymerase ribozyme fitness (log ratio) |
| --- | --- | --- |
| G86U C93U | = | -2.59 |
| A24U A37U G42C C75G | = | -3.99 |
| A52U C87A A97U U127C A142C | ≤ | -4.2 |
| U6A C10A U31A A49C U53A C76G G81A G92A A106G G117A | ≤ | -4.2 |
| C8U C10A A23C G59U G88U | ≤ | -4.2 |
| A16U C87U C116U | = | -2.25 |
| C57G C75U G86A A91C | ≤ | -4.2 |
| C27G C35U G74U C118U U130A A137U | ≤ | -4.2 |
| C14G C54G G68C C85U C105A C114A A137U | ≤ | -4.2 |
| A12U C93U A97U C103U C105U G133U | ≤ | -4.2 |
| A19G G84A | = | -1.52 |
| C57A A107C C125A G133A G136A U151A | ≤ | -4.2 |
| G67U C79G | ≤ | -4.2 |
| A37C C51U G58C C95G C118A | = | -3.66 |
| U56A U61G G65A C85A G86A A121U U127A | ≤ | -4.2 |
| G11C C38A G59A C125G | = | -2.58 |
| C8A A20U G42C C43G U44A A113U A142C | ≤ | -4.2 |
| A22U G80A | = | 0.375 |
| A49U C85A | = | -1.86 |
| U13C C54U C103U | = | -1.54 |
| G42C C54A A64C U77A G83C G126A U145A | ≤ | -4.2 |
| A73U C75A G92A | ≤ | -4.2 |
| U44G C57G A91U A107G C125U U130C U135G | ≤ | -4.2 |
| A22U A24U U44A C93A C96U C118U | ≤ | -4.2 |
| A28C A39U G48C G70A G84C C93G G140U | ≤ | -4.2 |
| G71C C116U | = | -2.51 |
| U53A C149U | = | -1.57 |
| C8A U15G C95U A98G C149U A150U | = | -4.06 |
| G48A U127G | = | -3.5 |
| A12G C54A C99U | = | -1.32 |
| U13G U44A G124C U144G | ≤ | -4.2 |
| C85G C132G | ≤ | -4.2 |
| A3C C85U G136C | = | -3.76 |
| C76A U90C U146G | ≤ | -4.2 |
| U44G G50A C57G C72G C114A G140C | ≤ | -4.2 |
| A47G C69A A122G | = | -3.43 |
| C57U U101G | = | -0.262 |
| A22U G140A | = | -2.83 |
| U77G G84C U148G | ≤ | -4.2 |
| A73G C85A G124A | = | -1.16 |
| C85A G126U | = | -0.409 |
| C5A U9C G42A A52G A66C G74A U82A A89U C123A C129A G133U | ≤ | -4.2 |
| C51U G86C A113G C114U A121G U151G | ≤ | -4.2 |
| A20C U55A A110G | = | -3.9 |
| C129G G143A | = | -2.23 |
| G59C G86U | = | -1.67 |
| C114U U151C | ≤ | -4.2 |
| U31C C51A C69U G81A A91U G124A U144G | ≤ | -4.2 |
| A60C A120U A137C G140U | ≤ | -4.2 |
| A19G A24G C43A G59A | ≤ | -4.2 |
| C103A U109G | = | -3.53 |
| G74C G81C | = | -3.94 |
| A40U G152U | = | -3.71 |
| A28U G88A A107G A142C U151A | ≤ | -4.2 |
| A20U A29G G46C G50C A66U G83A | ≤ | -4.2 |
| U61A C103G A115U | ≤ | -4.2 |
| G80A G84A | = | -0.264 |
| A26C G68C A122C U135C U139G U145G | ≤ | -4.2 |
| G50U G126C A138U | ≤ | -4.2 |
| C43U A89U G94U C105G C132A U151C | ≤ | -4.2 |
| A28G G94C G100U U134G | ≤ | -4.2 |
| U9C A52G U53A C114G U145G | ≤ | -4.2 |
| C14U A64G | = | -4.17 |
| C18U A121U | = | -1.1 |
| C14G A37U G86U A89U A119U C132G | ≤ | -4.2 |
| C27G G80A G81C | = | -4.11 |
| U56G A64U G81A G88A C114A A115U G141U | ≤ | -4.2 |
| U53G C63U G80C G81C G84U G100U | ≤ | -4.2 |
| A40C A49G U55A G80A C85U G140C | ≤ | -4.2 |
| A49C U55G C76U C87A C99U C105U A120U | ≤ | -4.2 |
| A40U G88A | = | -3.65 |
| C87U C105U | = | -2.21 |
| C5G A16U C43G C93G A106U A107U | ≤ | -4.2 |
| G92U G133C | = | -2.1 |
| A52G C95G A107G A120G U139C | = | -4.13 |
| C35G U55A C85U | ≤ | -4.2 |
| A3C C8G U9G G59A C87A G92C G117C G133U | ≤ | -4.2 |
| G100U | = | -2.58 |
| A12G C14A C38U C43A U56A C85U C103G | ≤ | -4.2 |
| G48C C85A C118A | = | -1.39 |
| C87U A120U C123G | = | -1.06 |
| A12C C57U C76G C96U | ≤ | -4.2 |
| U9A U13A A29G C96A C132A | ≤ | -4.2 |
| C57U C95A U109G | = | -0.696 |
| G58A G71U | = | -0.673 |
| G70A A73G C79U G88C G133C A137C | ≤ | -4.2 |
| C51U G140U | = | -2.55 |
| A37C C38U G71A U109G C123G | ≤ | -4.2 |
| C14A U53A G94C | = | -3.67 |
| G48C G80A C85U A120U A137G | ≤ | -4.2 |
| U56A G88A | = | -3.78 |
